- Tested on: Nucleic Acid
- ASSAY NOTES: Binding affinity to human 21-TT G-quadruplex DNA structure assessed as first step association constant by electrospray ionization mass spectrometry
- Type: nucleic-acid assay
Quick list: log Ks per entry.
Please reply with the value in numeric form only.

Use these answered entries as a reference point.
CN1CCN(c2cc3c4c(ccc5c6c(N7CCN(C)CC7)cc7c8c(ccc(c2c45)c86)C(=O)N(CCN2CCCCC2)C7=O)C(=O)N(CCN2CCCCC2)C3=O)CC1; 5.4
CN1CCN(CCOCCN2C(=O)c3ccc4c5c(N6CCCCC6)cc6c7c(ccc(c8c(N9CCCCC9)cc(c3c48)C2=O)c75)C(=O)N(CCOCCN2CCN(C)CC2)C6=O)CC1; 3.9
CN(C)CCCN1CCN(c2cc3c4c(ccc5c6ccc7c8c(ccc(c2c45)c86)C(=O)N(CCN2CCCCC2)C7=O)C(=O)N(CCN2CCCCC2)C3=O)CC1; 5.5
CN(C)CCOCCN1C(=O)c2ccc3c4c(N5CCCCC5)cc5c6c(ccc(c7c(N8CCCCC8)cc(c2c37)C1=O)c64)C(=O)N(CCOCCN(C)C)C5=O; 4.6
O=C1c2ccc3c4c(N5CCCCC5)cc5c6c(ccc(c7c(N8CCCCC8)cc(c2c37)C(=O)N1CCOCCN1CCCCC1)c64)C(=O)N(CCOCCN1CCCCC1)C5=O; 4.7

What log Ks value was documented for this compound, `O=C1c2ccc3c4c(N5CCCCC5)cc5c6c(ccc(c7c(N8CCCCC8)cc(c2c37)C(=O)N1CCN1CCCCC1)c64)C(=O)N(CCN1CCCCC1)C5=O` ?
4.8

---

Quick list: ΔTm per entry.
- Test system: Nucleic Acid
- ASSAY NOTES: Stabilization of 21-mer human F21T G4-telomeric quadruplex assessed as change in melting temperature at 1 uM by FRET assay
- Type: nucleic-acid assay
Could you give me the number in °C? Just the number is fine.

Use these answered entries as a reference point.
CN1CCN(c2cc3c4c(ccc5c6c(N7CCN(C)CC7)cc7c8c(ccc(c2c45)c86)C(=O)N(CCN2CCCCC2)C7=O)C(=O)N(CCN2CCCCC2)C3=O)CC1; 27.4
O=C1c2ccc3c4c(N5CCCCC5)cc5c6c(ccc(c7c(N8CCCCC8)cc(c2c37)C(=O)N1CCN1CCCCC1)c64)C(=O)N(CCN1CCCCC1)C5=O; 18.7

Read the next record carefully.
Observed ΔTm on Nucleic Acid for `CN1CCN(CCOCCN2C(=O)c3ccc4c5c(N6CCCCC6)cc6c7c(ccc(c8c(N9CCCCC9)cc(c3c48)C2=O)c75)C(=O)N(CCOCCN2CCN(C)CC2)C6=O)CC1` , please.
5.2

---

Quick list: IC50 per entry.
- ASSAYED TARGET: Telomerase reverse transcriptase (Homo sapiens, UniProt O14746)
- Sequence (O14746 whole entry): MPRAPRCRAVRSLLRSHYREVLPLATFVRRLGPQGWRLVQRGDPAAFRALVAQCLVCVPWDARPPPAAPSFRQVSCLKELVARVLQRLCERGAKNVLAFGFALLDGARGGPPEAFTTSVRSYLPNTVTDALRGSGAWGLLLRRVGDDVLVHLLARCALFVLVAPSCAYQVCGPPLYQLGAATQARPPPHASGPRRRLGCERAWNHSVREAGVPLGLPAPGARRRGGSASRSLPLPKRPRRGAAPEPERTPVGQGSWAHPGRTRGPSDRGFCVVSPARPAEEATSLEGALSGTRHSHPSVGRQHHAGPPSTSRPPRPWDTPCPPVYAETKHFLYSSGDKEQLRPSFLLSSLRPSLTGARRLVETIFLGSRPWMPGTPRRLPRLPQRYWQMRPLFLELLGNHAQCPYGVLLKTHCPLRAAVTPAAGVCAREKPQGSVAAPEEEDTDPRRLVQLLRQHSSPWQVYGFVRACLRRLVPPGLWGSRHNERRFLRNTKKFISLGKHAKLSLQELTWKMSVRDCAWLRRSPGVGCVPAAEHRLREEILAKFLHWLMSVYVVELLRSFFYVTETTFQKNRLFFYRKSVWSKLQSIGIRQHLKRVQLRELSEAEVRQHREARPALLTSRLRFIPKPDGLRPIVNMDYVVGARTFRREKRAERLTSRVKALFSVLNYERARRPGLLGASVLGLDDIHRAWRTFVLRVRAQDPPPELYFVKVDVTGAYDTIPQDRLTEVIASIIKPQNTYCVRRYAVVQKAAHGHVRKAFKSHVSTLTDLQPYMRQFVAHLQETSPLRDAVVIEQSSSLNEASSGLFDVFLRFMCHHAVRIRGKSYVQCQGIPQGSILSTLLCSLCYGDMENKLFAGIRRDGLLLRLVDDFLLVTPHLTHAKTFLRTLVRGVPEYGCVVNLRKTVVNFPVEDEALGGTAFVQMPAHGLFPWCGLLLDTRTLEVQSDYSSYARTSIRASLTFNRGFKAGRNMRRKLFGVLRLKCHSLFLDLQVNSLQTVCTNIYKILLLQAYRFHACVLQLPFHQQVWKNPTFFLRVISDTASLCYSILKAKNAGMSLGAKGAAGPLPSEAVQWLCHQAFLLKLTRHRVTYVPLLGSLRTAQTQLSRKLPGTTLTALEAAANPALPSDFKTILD
- ASSAY NOTES: Inhibition of human Telomerase activity in cell free system by TRAP assay
Could you give me the number in µM? Just the number is fine.

CN1CCN(c2cc3c4c(ccc5c6c(N7CCN(C)CC7)cc7c8c(ccc(c2c45)c86)C(=O)N(CCN2CCCCC2)C7=O)C(=O)N(CCN2CCCCC2)C3=O)CC1; 10
O=C1c2ccc3c4ccc5c6c(cc(N7CCCCC7)c(c7ccc(c2c37)C(=O)N1CCOCCN1CCCCC1)c64)C(=O)N(CCOCCN1CCCCC1)C5=O; 10

What IC50 value was documented for this molecule, `CN(C)CCCN1CCN(c2cc3c4c(ccc5c6ccc7c8c(ccc(c2c45)c86)C(=O)N(CCN2CCCCC2)C7=O)C(=O)N(CCN2CCCCC2)C3=O)CC1` ?
3

---

- Tested on: Nucleic Acid
- ASSAY NOTES: Binding affinity to human DK66 duplex DNA structure assessed as bound DNA at 5:20 DNA to drug ratio by electrospray ionization mass spectrometry
- Format: nucleic-acid assay
Mark T only for Activity values smaller than 10%; exact matches and larger values are F.

Here are 5 molecules together with their reported answers.
O=C1c2ccc3c4c(N5CCCCC5)cc5c6c(ccc(c7c(N8CCCCC8)cc(c2c37)C(=O)N1CCN1CCCCC1)c64)C(=O)N(CCN1CCCCC1)C5=O; F
O=C1c2ccc3c4c(N5CCCCC5)cc5c6c(ccc(c7c(N8CCCCC8)cc(c2c37)C(=O)N1CCOCCN1CCCCC1)c64)C(=O)N(CCOCCN1CCCCC1)C5=O; F
CN(C)CCOCCN1C(=O)c2ccc3c4c(N5CCCCC5)cc5c6c(ccc(c7c(N8CCCCC8)cc(c2c37)C1=O)c64)C(=O)N(CCOCCN(C)C)C5=O; F
O=C1c2ccc3c4ccc5c6c(cc(N7CCCCC7)c(c7ccc(c2c37)C(=O)N1CCOCCN1CCCCC1)c64)C(=O)N(CCOCCN1CCCCC1)C5=O; F
CNCCOCCN1C(=O)c2ccc3c4c(N5CCCCC5)cc5c6c(ccc(c7c(N8CCCCC8)cc(c2c37)C1=O)c64)C(=O)N(CCOCCNC)C5=O; T

Kindly consider the entry below.
Activity under 10%? Item: `O=C1c2ccc3c4c(N5CCCCC5)cc5c6c(cc(N7CCCCC7)c(c7ccc(c2c37)C(=O)N1CCOCCN1CCCCC1)c64)C(=O)N(CCOCCN1CCCCC1)C5=O`
F

---

Quick list: Activity per entry.
- System: Nucleic Acid
- ASSAY NOTES: Binding affinity to human 21-TT G-quadruplex DNA structure assessed as bound DNA at 5:5 DNA to drug ratio by electrospray ionization mass spectrometry
- Assay type: nucleic-acid assay
Could you give me the number in %? Just the number is fine.

O=C1c2ccc3c4c(N5CCCCC5)cc5c6c(cc(N7CCCCC7)c(c7ccc(c2c37)C(=O)N1CCOCCN1CCCCC1)c64)C(=O)N(CCOCCN1CCCCC1)C5=O; 20
CNCCOCCN1C(=O)c2ccc3c4c(N5CCCCC5)cc5c6c(ccc(c7c(N8CCCCC8)cc(c2c37)C1=O)c64)C(=O)N(CCOCCNC)C5=O; 13
CN(C)CCOCCN1C(=O)c2ccc3c4c(N5CCCCC5)cc5c6c(ccc(c7c(N8CCCCC8)cc(c2c37)C1=O)c64)C(=O)N(CCOCCN(C)C)C5=O; 22.5
O=C1c2ccc3c4c(N5CCCCC5)cc5c6c(ccc(c7c(N8CCCCC8)cc(c2c37)C(=O)N1CCOCCN1CCCCC1)c64)C(=O)N(CCOCCN1CCCCC1)C5=O; 23
CN1CCN(c2cc3c4c(ccc5c6c(N7CCN(C)CC7)cc7c8c(ccc(c2c45)c86)C(=O)N(CCN2CCCCC2)C7=O)C(=O)N(CCN2CCCCC2)C3=O)CC1; 45

Observed Activity on Nucleic Acid for `O=C1c2ccc3c4ccc5c6c(cc(N7CCCCC7)c(c7ccc(c2c37)C(=O)N1CCOCCN1CCCCC1)c64)C(=O)N(CCOCCN1CCCCC1)C5=O` , please.
56

Observed Activity on Nucleic Acid for `O=C1c2ccc3c4c(N5CCCCC5)cc5c6c(ccc(c7c(N8CCCCC8)cc(c2c37)C(=O)N1CCN1CCCCC1)c64)C(=O)N(CCN1CCCCC1)C5=O` , please.
22

Observed Activity on Nucleic Acid for `CN(C)CCCN1CCN(c2cc3c4c(ccc5c6ccc7c8c(ccc(c2c45)c86)C(=O)N(CCN2CCCCC2)C7=O)C(=O)N(CCN2CCCCC2)C3=O)CC1` , please.
48

---

- Tested on: Nucleic Acid
- ASSAY NOTES: Stabilization of human duplex DNA T-loop assessed as change in melting temperature at 1 uM by FRET assay
- Format: nucleic-acid assay
Mark criterion met only for ΔTm values smaller than 0.1 °C; exact matches and larger values are criterion not met.

CN(C)CCOCCN1C(=O)c2ccc3c4c(N5CCCCC5)cc5c6c(ccc(c7c(N8CCCCC8)cc(c2c37)C1=O)c64)C(=O)N(CCOCCN(C)C)C5=O; criterion not met
CNCCOCCN1C(=O)c2ccc3c4c(N5CCCCC5)cc5c6c(ccc(c7c(N8CCCCC8)cc(c2c37)C1=O)c64)C(=O)N(CCOCCNC)C5=O; criterion met
CN1CCN(c2cc3c4c(ccc5c6c(N7CCN(C)CC7)cc7c8c(ccc(c2c45)c86)C(=O)N(CCN2CCCCC2)C7=O)C(=O)N(CCN2CCCCC2)C3=O)CC1; criterion not met

ΔTm under 0.1 °C? Item: `O=C1c2ccc3c4c(N5CCCCC5)cc5c6c(ccc(c7c(N8CCCCC8)cc(c2c37)C(=O)N1CCN1CCCCC1)c64)C(=O)N(CCN1CCCCC1)C5=O`
criterion not met

ΔTm under 0.1 °C? Item: `O=C1c2ccc3c4ccc5c6c(cc(N7CCCCC7)c(c7ccc(c2c37)C(=O)N1CCOCCN1CCCCC1)c64)C(=O)N(CCOCCN1CCCCC1)C5=O`
criterion met

ΔTm under 0.1 °C? Item: `CN1CCN(CCOCCN2C(=O)c3ccc4c5c(N6CCCCC6)cc6c7c(ccc(c8c(N9CCCCC9)cc(c3c48)C2=O)c75)C(=O)N(CCOCCN2CCN(C)CC2)C6=O)CC1`
criterion met

ΔTm under 0.1 °C? Item: `O=C1c2ccc3c4c(N5CCCCC5)cc5c6c(ccc(c7c(N8CCCCC8)cc(c2c37)C(=O)N1CCOCCN1CCCCC1)c64)C(=O)N(CCOCCN1CCCCC1)C5=O`
criterion met

ΔTm under 0.1 °C? Item: `CN(C)CCCN1CCN(c2cc3c4c(ccc5c6ccc7c8c(ccc(c2c45)c86)C(=O)N(CCN2CCCCC2)C7=O)C(=O)N(CCN2CCCCC2)C3=O)CC1`
criterion not met
